Reference for the values: patent EP0745595A1

System: CASSIA OBTUSIFOLIA, L.
assay.comment: Postemergence herbicidal evaluation, CASOB (Sicklepod)
Format: in vivo
Parameters: key: 0-9 visual rating scale vs untreated control
run.parameters: 0.031 kg/ha
Reported Herbicidal effect rating, CASOB values are given for each entry in this list.
Answer as a number with no unit attached.

Cn1c(=O)[nH]c(=O)n(-c2cc(Oc3ccc(C(F)(F)F)cc3Cl)ccc2[N+](=O)[O-])c1=O [B, reference compound]; 3.5
COC(=O)Cn1c(=O)n(C)c(=O)n(-c2cc(Oc3c(F)cc(C(F)(F)F)cc3Cl)ccc2F)c1=O [Compound 4]; 8.6
COC(=O)Cn1c(=O)n(C)c(=O)n(-c2cc(Oc3ccc(C(F)(F)F)cc3Cl)ccc2[N+](=O)[O-])c1=O [Compound 3]; 7.7

// Herbicidal effect rating, CASOB lookup, molecule = Cn1c(=O)[nH]c(=O)n(-c2cc(Oc3c(F)cc(C(F)(F)F)cc3Cl)ccc2F)c1=O [C, reference compound] , result: 2.0

----------
System: GALIUM APARINE
assay.comment: Preemergence herbicidal evaluation, GALAP (Galium)
Format: in vivo
run.parameters: Rate 0.250 kg/ha, four to five weeks after treatment
measured.parameter: GALAP rating
Just the number, please.

Consider the worked cases shown below.
COC(=O)Cn1c(=O)n(C)c(=O)n(-c2cc(Oc3c(F)cc(C(F)(F)F)cc3Cl)ccc2Br)c1=O [Compound 2]; 9.0
COC(=O)Cn1c(=O)n(C)c(=O)n(-c2cc(Oc3c(F)cc(C(F)(F)F)cc3Cl)ccc2F)c1=O [Compound 4]; 9.0
C#CCn1c(=O)n(CC(=O)OCC)c(=O)n(-c2cc(Oc3ccc(C(F)(F)F)cc3Cl)ccc2[N+](=O)[O-])c1=O [Compound 7]; 8.0
CCOC(=O)Cn1c(=O)n(CC(=O)OC)c(=O)n(-c2cc(Oc3ccc(C(F)(F)F)cc3Cl)ccc2[N+](=O)[O-])c1=O [Compound 6]; 9.0
CCOC(=O)Cn1c(=O)[nH]c(=O)n(-c2cc(Oc3ccc(C(F)(F)F)cc3Cl)ccc2[N+](=O)[O-])c1=O [Compound 5]; 9.0

The recorded GALAP rating for entry COC(=O)Cn1c(=O)n(C)c(=O)n(-c2cc(Oc3ccc(C(F)(F)F)cc3Cl)ccc2[N+](=O)[O-])c1=O [Compound 3] equals 8.4

----------
System: ABUTILON THEOPHRASTI, MEDIC.
assay.comment: Postemergence herbicidal evaluation, ABUTH (Velvetleaf)
Format: in vivo
run.parameters: 0.063 kg/ha
measured.parameter: Herbicidal effect rating, ABUTH
Please give only the number in your answer, with no unit.

Observe how each entry below is paired with its result.
Cn1c(=O)[nH]c(=O)n(-c2cc(Oc3ccc(C(F)(F)F)cc3Cl)ccc2[N+](=O)[O-])c1=O [B, reference compound]; 7.0
COC(=O)Cn1c(=O)n(C)c(=O)n(-c2cc(Oc3c(F)cc(C(F)(F)F)cc3Cl)ccc2F)c1=O [Compound 4]; 8.9
Cn1c(=O)[nH]c(=O)n(-c2cc(Oc3c(F)cc(C(F)(F)F)cc3Cl)ccc2F)c1=O [C, reference compound]; 4.0
COC(=O)Cn1c(=O)n(C)c(=O)n(-c2cc(Oc3ccc(C(F)(F)F)cc3Cl)ccc2[N+](=O)[O-])c1=O [Compound 3]; 8.1
Cn1c(=O)[nH]c(=O)n(-c2cc(Oc3c(F)cc(C(F)(F)F)cc3Cl)ccc2Br)c1=O [A, reference compound]; 5.0

Now turn to the next molecule.
Short answer for COC(=O)Cn1c(=O)n(C)c(=O)n(-c2cc(Oc3c(F)cc(C(F)(F)F)cc3Cl)ccc2Br)c1=O [Compound 2] : Herbicidal effect rating, ABUTH was 8.8
